Tested on: SW-620
Assay: NCI tumour cell line growth inhibition, 48 h
Calls of active or inactive are those of the source. Rule as the data show it: active = GI50 up to about 1.1 µM and inactive = higher.
// allowed return values: active, inactive

Solved entries (count: 2):
> print(dat)
                                   molecule  answer.label
1  CC(=O)Nc1ccc2c3c(cc(O)c2c1)N(C(=O)CCCCCC(=O)Nc1ccc2c4c(cc(O)c2c1)N(C(=O)OC(C)(C)C)CC4CCl)CC3CCl (stereo not given)      inactive
2               O=C(/C=N/O)Nc1ccc(Cl)c(I)c1      inactive

Called result for Cc1nn(C(=O)c2ccccc2O)c2c1C(c1ccccc1)SC(=N)N2 (stereo not given)
inactive

Tell me the assay call for `CSc1ccc(/C=C2\CN(C)C/C(=C\c3ccc(SC)cc3)C2=O)cc1` please.
inactive

Look up the recorded call for COc1cccc(C2c3cc4c(cc3OC(NNC(N)=O)C2C)OCO4)c1OC (stereo not given) in this test.
inactive

Recorded call for `CN(C)C(=S)/N=c1\ssc(=S)n1Cc1ccco1` ?
active

What outcome does the record of this test show for COc1ccc2c3c1O[C@H]1C(=O)C=CC4(n5[nH]c(=O)n(-c6ccccc6)c5=O)C(C2)N(C)CCC314 (stereo not given in full) ?
inactive

* * *

Tested on: SNB-75
Test: NCI tumour cell line growth inhibition, 48 h
Activity calls are given as the source filed them. Cut-off read from the data, not from the text of the source: active = GI50 up to about 1.1 µM and inactive = higher.
ASSAY READOUT: GI50

> print(dat)
                                   molecule               result
1  CCN(CC)CCO/N=C1/C=C2CCC3C(CC[C@@]4(C)C3CC[C@]4(C)O)[C@@]2(C)CC1 (stereo not given in full)   2.89 µM (inactive)
2  CC1C2(C)OCC(C#N)(C(=N)O2)C1(C#N)C#N (stereo not given)   96.8 µM (inactive)
3  CCOC(=O)C1=C(C(=O)c2ccc(C)cc2)C(c2cccc([N+](=O)[O-])c2)C(C(=O)c2ccc(C)cc2)=C(C(=O)OCC)N1   40.9 µM (inactive)
4         CCc1nc(N)nc(N)c1-c1ccc2nnn(O)c2c1  > 100 µM (inactive)

Now for a further molecule.
Per the records, this molecule ( `O=C(O)CCCNc1ncc2c(n1)-c1ccccc1OC2` ) has GI50 equal to 33.8 µM (inactive)

* * *

Test system: RXF 631
Test: NCI tumour cell line growth inhibition, 48 h
Calls of active or inactive are those of the source. Rule as the data show it: active = GI50 up to about 1.1 µM and inactive = higher.
ASSAY READOUT: GI50

Would you please look over these solved cases?
> print(dat)
                                   compound  test.target               result
1  O=C(N/C(=C\c1ccc([N+](=O)[O-])cc1)c1nc2ccccc2[nH]1)c1ccccc1      RXF 631   43.7 µM (inactive)
2  O=C(Nc1nc2ncn(CC(COc3ccccc3)OC(=O)c3ccccc3)c2c(=O)[nH]1)c1ccccc1 (stereo unspecified)      RXF 631  > 100 µM (inactive)
3  COc1cc2c(cc1OC)C(N(C)C)C(c1ccccc1)=C2Cl (stereo unspecified)      RXF 631   15.7 µM (inactive)

Given item `Nc1ccccc1C(=O)CCC1C(=O)NC(=S)NC1=O` , the value recorded as its GI50 is > 100 µM (inactive)

Value of measured GI50 for the entry `CC(=O)CC[N+](C)(C)C` : 28.8 µM (inactive)

Value of measured GI50 for the entry `CCCC(=O)c1ccc(=O)n(C)c1` : 88.3 µM (inactive)

These data points were gathered from ChEMBL document CHEMBL1201862.
